measured_on: purified periplasmic domain of TraE (plasmid pKM101) (Escherichia coli, UniProt Q17U16)
Sequence (Q17U16 entry or part of it): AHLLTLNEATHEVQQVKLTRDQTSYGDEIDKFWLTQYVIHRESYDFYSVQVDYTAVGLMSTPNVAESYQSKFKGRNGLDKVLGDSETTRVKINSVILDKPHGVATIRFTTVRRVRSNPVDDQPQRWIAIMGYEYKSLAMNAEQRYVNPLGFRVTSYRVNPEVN
method: Binding to TraE by fluorescence quenching (intrinsic UV fluorescence)
run_conditions: 20 °C, 20 mM HEPES, 50 mM NaCl, pH 7.4; single site saturation fit
pKd: −log10 of the molar value.
In this section, each of the compounds is paired with its reported pKd.

| smiles_input | measured_on | pKd |
| --- | --- | --- |
| O=C(O)c1ccco1 | purified periplasmic domain of TraE (plasmid pKM101) (Escherichia coli, UniProt Q17U16) | 4.64 |
| O=C(O)c1cc(-n2cccc2)ccn1 | purified periplasmic domain of TraE (plasmid pKM101) (Escherichia coli, UniProt Q17U16) | 5.03 |
| O=C(O)c1ccnc(-c2ccco2)c1 | purified periplasmic domain of TraE (plasmid pKM101) (Escherichia coli, UniProt Q17U16) | 4.71 |

Hello, the source for this data is paper PMC5668240, in case you need it.
